- System: SK-OV-3 ovarian
- Method Description: NCI tumour cell line growth inhibition, 48 h
Property: TGI

Query: Can you share its TGI? I mean this compound: CSc1ccc(/C=C2\N=C(c3ccccc3)N(/N=C3\C(=O)Nc4ccccc43)C2=O)cc1
Result: > 100 µM

Query: Return reported TGI; argument: CCOC(=O)c1cc(-c2ccccc2)[nH]c1N/N=C/c1c(Cl)cccc1Cl
Result: > 100 µM

Query: Item COc1ccc2c(c1)N(CCO)C1=C(C(=O)OC1)C2c1ccc(OC)c(OC)c1 (centres undefined) has what recorded TGI?
Result: > 100 µM

Query: Query (compound): O=C(/C=C/c1ccccc1)OCC1=C[C@@H](O)[C@@H]2C=CO[C@@H](OC3OC(CO)C(O)C(O)C3O)[C@H]12 (some centres undefined) ; field requested: TGI
Result: > 100 µM

Query: Consider the compound c1c2c(cc3c1OCO3)-c1cc3ccc4c(c3c[n+]1CC2)OCO4 and give its measured TGI.
Result: > 12.5 µM

Query: TGI lookup needed for Cc1ccc(S(=O)(=O)CC2(Br)CCc3ccccc3C2=O)cc1 (centres undefined) , thanks.
Result: > 100 µM

Query: TGI lookup needed for COC(=O)/C(=N/NC(C)(C)C)C(C(=O)OC)C(=O)C(=O)Nc1nc2ccc([N+](=O)[O-])cc2s1 (centres undefined) , thanks.
Result: > 100 µM

Query: # TGI lookup, item CN1CCN(c2ccc(Nc3ncc4cc5n(c4n3)C3(CCCCC3)CNC5=O)nc2)CC1
Result: 68.2 µM

Query: Endpoint output: TGI of CCCCCC(=Nc1n[nH]nc1C(N)=O)OCC . Value?
Result: > 100 µM

----------
What TGI was measured for each of the following?
- System: OVCAR-5 ovarian
- Method Description: NCI tumour cell line growth inhibition, 48 h

Query: Find the measured TGI: item Clc1ccc(-c2nc3ccc4ccccc4c3c3c2CCCC3)cc1 , target or system OVCAR-5 ovarian.
Result: > 100 µM

Query: Item: c1c2c(cc3c1OCO3)-c1cc3ccc4c(c3c[n+]1CC2)OCO4 Test system: OVCAR-5 ovarian Read-out: TGI Value: ?
Result: > 12.5 µM

Query: Please state recorded TGI (tested on OVCAR-5 ovarian) of NC(=O)c1cc([N+](=O)[O-])cc([N+](=O)[O-])c1
Result: > 100 µM

Query: # returns recorded TGI (system: OVCAR-5 ovarian) for CC/C(=N/N=C(N)N)c1ccc(NC(=O)Nc2ccc(/C(CC)=N/N=C(N)N)cc2)cc1
Result: 44.6 µM

Query: Please tell me: TGI of N=C1/C(=C2\Nc3ccccc3S2)CC(=O)N1c1ccc(SC(F)F)cc1 , system OVCAR-5 ovarian?
Result: 79.4 µM

Query: Recorded TGI for COC(=O)NC(=O)c1cn(C2CCCCC2)c(=O)[nH]c1=O with OVCAR-5 ovarian, please?
Result: > 100 µM

----------
- Tested on: K-562 leukemia
- Method Description: NCI tumour cell line growth inhibition, 48 h
I'd be grateful if you could share measured TGI for these entries.

Query: Report TGI for CS(=O)(=O)N1CCc2c(-c3cnc(N)nc3)nc(N3CCOCC3)nc21 tested on K-562 leukemia.
Result: > 100 µM

Query: So what TGI did O=C1OCCC[C@H]2O[C@@H](COCc3ccccc3)C[C@@H]12 get with K-562 leukemia?
Result: > 100 µM

Query: Identify the measured TGI of Cc1ccc(S(=O)(=O)N/N=C2\CC(C)OC3=C2CCCCCC3)cc1 (configuration not stated) for K-562 leukemia.
Result: > 100 µM

Query: Give TGI (K-562 leukemia) of the following compound: COc1ccc(Nc2nc3ccc(C(F)(F)F)cc3nc2C(=O)O)cc1
Result: > 100 µM

Query: Request - read-out TGI | tested on K-562 leukemia | compound COc1cccc(/C=C\c2ccnc3ccccc23)c1
Result: > 10 µM

Query: Write down the reported TGI of CCSc1nc(-c2cccs2)nc2ccc(I)cc12 , test system: K-562 leukemia.
Result: > 100 µM

Query: I'm curious: which TGI was measured for CC12CC(=O)C3C(CCC4=CC(=O)CCC43C)C1CC=C2CC(=O)O (configuration not stated) tested on K-562 leukemia?
Result: > 100 µM

Query: Find the measured TGI: item CC1CC(Br)C(=O)O1 (configuration not stated) , target or system K-562 leukemia.
Result: > 100 µM

Query: Request - read-out TGI | tested on K-562 leukemia | compound O=C(O)c1nc2ccccc2nc1NCc1ccc(F)cc1
Result: > 100 µM

Query: Recall the recorded TGI for CO/N=C(\C)c1cccc(Nc2nc3ccccc3c3occc23)c1 with K-562 leukemia and state it.
Result: 38.2 µM

Query: What value of TGI on K-562 leukemia does COc1c(Br)cc(/C=C(\C#N)c2ccccn2)cc1Br have?
Result: > 100 µM

Query: // lookup TGI | system=K-562 leukemia | key= Cc1c(N=Nc2ccc(Cl)cc2)c(C)n(C2OC(CO)C(O)C(O)C2O)c(=S)c1C#N (configuration not stated)
Result: 55.4 µM

Query: # returns recorded TGI (system: K-562 leukemia) for COC(=O)C1(C)CCCC2(C)c3cc(OC)ccc3C(=O)C(Br)C12 (configuration not stated)
Result: > 10 µM

Query: GET /values?readout=TGI&system=K-562 leukemia&item= C[N+](C)(C)CCN[N+]1(C)CCCc2ccccc21 (configuration not stated)
Result: > 100 µM

Query: # query: TGI | item N[C@@H](CSSC[C@H](N)C(=O)N1CCn2cc(-c3ccccc3)nc2[C@@H]1CC1CCCCC1)C(=O)N1CCn2cc(-c3ccccc3)nc2[C@@H]1CC1CCCCC1 | system: K-562 leukemia
Result: > 100 µM

Query: Could you share what TGI was measured for O=c1oc2c/c(=C\c3ccccn3)c(=O)c3cccc1c3-2 , tested on K-562 leukemia?
Result: > 100 µM

Query: Request - read-out TGI | tested on K-562 leukemia | compound CCCc1n(Cc2ccc3ccccc3n2)cc[n+]1Cc1ccc2ccccc2n1
Result: 15.9 µM

Query: Notebook entry, K-562 leukemia assay: TGI of O=c1c2cc(O)c(O)cc2oc2cc(O)c(C3OC(CO)C(O)C(O)C3O)c(O)c12 (configuration not stated) = ?
Result: > 100 µM

Query: Find TGI (K-562 leukemia) for the entry Cc1ccc(S(=O)(=O)CC2(Br)CCc3ccccc3C2=O)cc1 (configuration not stated)
Result: > 100 µM

Query: Notebook entry, K-562 leukemia assay: TGI of CNC(C)Cc1ccccc1OC (configuration not stated) = ?
Result: > 100 µM

Query: Form: Entry = CC1(C)CC(N2CCN(C3CC(C)(C)NC(C)(C)C3)CC2)CC(C)(C)N1 | System = K-562 leukemia | TGI = ____
Result: > 100 µM

Query: K-562 leukemia / TGI / CNc1ncc2cc(-c3cc(NC(=O)NCCC(C)(C)C)c(F)cc3C)c(C)nc2n1 : value?
Result: > 100 µM

----------
- Test system: HOP-92 NSCLC
- Method Description: NCI tumour cell line growth inhibition, 48 h
Answer each item with its documented TGI.

Query: Form: Entry = CCc1ccc(/C=C/C(=O)C2CN(CC)CCC2(O)/C=C/c2ccc(CC)cc2)cc1 (stereo not given) | System = HOP-92 NSCLC | TGI = ____
Result: 5.33 µM

Query: Form: Entry = COc1ccc2c(c1)/C(=C\c1c(Cl)n(-c3ccccc3)c3ccccc13)C(=O)N2 | System = HOP-92 NSCLC | TGI = ____
Result: 17.6 µM

Query: Form field - read-out: TGI; system: HOP-92 NSCLC; submitted item: CC(C)(C)OC(=O)NC(CS(=O)(=O)O)C(=O)O (stereo not given)
Result: > 100 µM

Query: Under HOP-92 NSCLC: TGI value of CNN1C(=O)c2c(C)c(C)c(C#N)c(N)c2C1=O ?
Result: > 100 µM

Query: // fetch HOP-92 NSCLC TGI for COC(=O)[C@@H]1COC(C(C)(C)C)N1C(=O)C(c1ccccc1)c1ccccc1 (stereo not given in full)
Result: > 100 µM

----------
For each of the compounds below, state its TGI.
- Tested on: NCI-H460 lung
- Method Description: NCI tumour cell line growth inhibition, 48 h

Query: What measured TGI goes with CC12CC(=O)C3C(CCC4=CC(=O)CCC43C)C1CC=C2CC(=O)O (stereo not given) ?
Result: > 100 µM

Query: Would you mind telling me what TGI value was observed for CSc1ccc(/C=C2\N=C(c3ccccc3)N(/N=C3\C(=O)Nc4ccccc43)C2=O)cc1 ?
Result: > 100 µM

Query: Please give the measured TGI for this compound: Cc1cc2c(cc1Cl)SC(C(=O)c1ccc(Cl)c(Cl)c1)NS2(=O)=O (stereo not given)
Result: 50.7 µM

Query: Bench note: what TGI did Cc1ccc(NC(=O)C(=O)CC(=O)c2ccccc2)cc1C show?
Result: > 100 µM

Query: Return reported TGI; argument: O=C1NC(=O)C(c2c[nH]c3ccccc23)=C1c1ccccc1
Result: > 25 µM

Query: Item under review: CN1CCc2cc3c4cc2C1Cc1ccc(cc1)Oc1cc(ccc1O)CC1c2c(cc(O)c(c2O4)O3)CCN1C (stereo not given) . Reported TGI?
Result: 4.01 µM

Query: I'd like to know its TGI. The compound in question is COc1ccc(/C=C2/CN(CCC#N)C/C(=C\c3ccc(OC)cc3)C2=O)cc1
Result: 4.75 µM

Query: Would you mind telling me what TGI value was observed for Cc1cc2c(cc1Cl)N1C(=O)NS(=O)(=O)N=C1NS2(=O)=O ?
Result: > 100 µM

Query: Which TGI value belongs to COc1ccc(Nc2nc3ccc(C(F)(F)F)cc3nc2C(=O)O)cc1 ?
Result: 83.7 µM

Query: Tell me the measured TGI of Cn1cc(C2=C(c3c(S(C)=O)n(C)c4ccccc34)C(=O)NC2=O)c2ccccc21 (stereo not given) , please.
Result: > 25 µM

Query: So what's the measured TGI for this one? COc1cc(/C=C/c2cc(O)c(C/C=C(\C)CC/C=C(\C)CO)c(O)c2)cc2c1O[C@]1(C)CC[C@@H](O)C(C)(C)[C@H]1C2
Result: > 100 µM

Query: Need TGI, item COc1cccc(/C=C\c2ccnc3ccccc23)c1
Result: > 10 µM

Query: Return reported TGI; argument: O=C1N=C(Nc2nc(-c3csc(NC4=NC(=O)/C(=C\c5ccc(Cl)cc5)S4)n3)cs2)S/C1=C/c1ccc(Cl)cc1
Result: > 50 µM

Query: Could you share which TGI value was measured for COc1ccc2c(c1)/C(=C\c1c(Cl)n(-c3ccccc3)c3ccccc13)C(=O)N2 ?
Result: 68.2 µM

Query: Which TGI value is on record for Cc1cc(-c2cscn2)c(O)c([N+](=O)[O-])c1 ?
Result: > 100 µM

Query: Param item = COc1cc2c(cc1O)C1CC(CC3CCCCN31)OC(=O)/C=C\c1ccc(O)c-2c1 (stereo not given) ; retrieve measured TGI.
Result: > 100 µM

Query: Which TGI is listed for N=C1/C(=C2\Nc3ccccc3S2)CC(=O)N1c1ccc(SC(F)F)cc1 ?
Result: 30.9 µM

Query: Suppose we examine the compound CC(=O)C(C=O)C(C)=O.CC(=O)CC(C)=O.CC(=O)CC(C)=O.[Ru] ; what TGI value has been reported?
Result: > 100 µM

Query: Which TGI is reported for this compound? COc1c(Br)cc(/C=C(\C#N)c2ccccn2)cc1Br
Result: > 100 µM

Query: What value of TGI has been recorded for this entry: COc1ccc(C(=C2C(=O)N(c3ccccc3)C(=O)C2=C(C)C)c2ccc(OC)cc2)cc1
Result: > 100 µM
